target: Neu5Ac(a2-8)Neu5Ac(a2-8)Neu5Ac; experiment: glycan array binding signal (z-score within array); higher = stronger binding; settings: glycan notation: IUPAC condensed, linker removed
This is one part of a sample in which the strongest signals are shown more often than they occur.
property.name: glycan array binding signal (z-score)
Respond with the number and no other words.

Some binders with recorded glycan array binding signal (z-score):
binder: CBM40 CPF071 (Clostridium perfringens) (protein) MAHHHHHHVGTGSNDDDDKSPDPMLSSLGEYKDINLESSNASNITYDLEKYKNLDEGTIVVRFNSKDSKIQSLLGISNSKTKNGYFNFYVTNSRVGFELRNQKNEGNTQNGTENLVHMYKDVALNDGDNTVALKIEKNKGYKLFLNGKMIKEVKDTNTKFLNNIENLDSAFIGKTNRYGQSNEYNFKGNIGFMNIYNEPLGDDYLLSKTGETK
property.name: glycan array binding signal (z-score)
endpoint.result: -0.128

binder: RS2L (Ralstonia solanacearum), B5RXL5_RALSO (protein) MAQQGVFTLPANTSFGVTAFANAANTQTIQVLVDNVVKATFTGSGTSDKLLGSQVLNSGSGAIKIQVSVNGKPSDLVSNQTILANKLNFAMVGSEDGTDNDYNDGIAVLNWPLG
property.name: glycan array binding signal (z-score)
endpoint.result: -0.243

binder: SrpA (Streptococcus sanguis) (protein) SSKSESTVNSQSASSETNRSSTNNGSTSSSSETARVRKRRATDTTPPTITVPSDIIAYRGEEFEFYFEITDDSGQVKNIELSTFGKPLGLNWLEYSEDNFNVPGNATSDNPLRVRVHGTVPLNEPIPADKNRAQFTRTIRAWDAAGNVSSNITFVIKYRAQTDKYNPADPTITYVDRLSSLSPSEKNAVEAAVRAANPQIPAAARITVSANGTVTITYPDSSTDTITANRVVKDLASSRSALT
property.name: glycan array binding signal (z-score)
endpoint.result: -0.629

binder: HA-11100 (Pseudomonas aeruginosa), Q02G51_PSEAB (protein) QFNPNEIKISQQGKTTLIDQSTQRAIINWKGFDVSADEAVRFNQPGVTSSTLNRVTAGQESVIAGRISAPGQVIIYNSNGVVFSGSAKVDVGSLITTTANISDEHFRQGKLIFDQPGNPDARIVNDGSISVAEKGLAAFVAPSVANNGVINARLGTVAMAAGNAATIDLYG
property.name: glycan array binding signal (z-score)
endpoint.result: -0.333

Record summary for EfCBM33A (Enterococcus faecalis), Q838S1 (protein) MKKSLLTIVLAFSFVLGGAALAPTVSEAHGYVASPGSRAFFGSSAGGNLNTNVGRAQWEPQSIEAPKNTFITGKLASAGVSGFEPLDEQTATRWHKTNITTGPLDITWNLTAQHRTASWDYYITKNGWNPNQPLDIKNFDKIASIDGKQEVPNKVVKQTINIPTDRKGYHVIYAVWGIGDTVNAFYQAIDVNIQ : reported glycan array binding signal (z-score) = 0.016

Record summary for Pwp2 (Candida glabrata) (protein) MGSSHHHHHHSSGLVPRGSHMASKNPVELNNVCTFPNDYGRIPGFTVLVGRLGLLISASDYKELLRYPGAFLIATQDTMTTSPNFELTGFPFFTGLYGLTVFPLDLLVELRGYFVPPNSGQYTFTLSDSDDAAIIFLGNPSAFPCGDLQNWPKPSEEDITVTDHLFPSRTLYLIEGVAYPMRIAYYNGIGAGRLNAAFIDPSGTRHTNWEGYIWQYDPCSTCTYS : reported glycan array binding signal (z-score) = -0.203

Record summary for SBD-G4S3-SBD (protein) MASIPSSASVQLDSYNYDGSTFSGKIYVKNIAYSKKVTVVYADGSDNWNNNGNIIAASFSGPISGSNYEYWTFSASVKGIKEFYIKYEVSGKTYYDNNNSANYQVSTGGGGSGGGGSGGGGSEFASIPSSASVQLDSYNYDGSTFSGKIYVKNIAYSKKVTVVYADGSDNWNNNGNIIAASFSGPISGSNYEYWTFSASVKGIKEFYIKYEVSGKTYYDNNNSANYQVST : reported glycan array binding signal (z-score) = -0.377

Record summary for CV-IIL (Chromobacterium violaceum) (protein) AQQGVFTLPARINFGVTVLVNSAATQHVEIFVDNEPRAAFSGVGTGDNNLGTKVINSGSGNVRVQITANGRQSDLVSSQLVLANKLNLAVVGSEDGTDMDYNDSIVILNWPLG : reported glycan array binding signal (z-score) = -0.501

Recorded values, source the supplement of paper PMC8728848.
